The measurements presented in this section are drawn from patent US10428051B2.

Biological target: UniProt:Q99720
Sequence (Q99720 whole entry): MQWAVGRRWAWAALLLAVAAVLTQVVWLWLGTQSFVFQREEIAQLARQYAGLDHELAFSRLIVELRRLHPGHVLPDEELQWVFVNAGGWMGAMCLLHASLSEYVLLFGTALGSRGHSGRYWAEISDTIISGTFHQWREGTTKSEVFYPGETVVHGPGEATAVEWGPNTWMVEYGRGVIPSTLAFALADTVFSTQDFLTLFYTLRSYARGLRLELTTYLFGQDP
Assay: biochemical
Format: binding
QUANTITY_MEASURED: Ki

Consider the reported Ki for these molecules:
CCC(=O)N(CC1(N2CCN(CC(C)C)CC2)CCOC(C)(C)C1)c1cccc(C#N)n1 (stereo not drawn)
> 500 nM
CCC(=O)N(CC1(N2CCN(CCOC3CC3)CC2)CCOCC1)c1cccc(C(F)(F)F)n1
< 500 nM

Exercise: Output measured Ki for this item: CCC(=O)N(CC1(N2CC3CN(CC(C)C)CC3C2)CCOCC1)c1cccc(C(F)(F)F)n1 (stereo not drawn)
Solution: > 500 nM
